tested on: CU-ACC1; assay: AC50 viability; higher = less potent; conditions: 48 h
AC50 viability values by entry
MEASUREMENT TYPE: AC50 viability (µM)

[
  {
    "TEST SMILES": "C[C@@H]1CN[C@H]2[C@@H](C)[C@@]3(CC[C@H]4[C@@H]5CC[C@@H]6C[C@@H](CC[C@]6(C)[C@H]5C\\C4=C(C)\\C3)N[S+](C)([O-])=O)O[C@@H]2C1",
    "SYSTEM TESTED": "CU-ACC1",
    "READOUT UNITS": "µM",
    "RESULT NUMBER": 16.6
  },
  {
    "TEST SMILES": "C=CCNC1=C2C[C@@H](C)C[C@H](OC)[C@H](O)[C@@H](C)/C=C(\\C)[C@H](OC(N)=O)[C@@H](OC)/C=C\\C=C(/C)C(=O)NC(=CC1=O)C2=O",
    "SYSTEM TESTED": "CU-ACC1",
    "READOUT UNITS": "µM",
    "RESULT NUMBER": 10.5
  },
  {
    "TEST SMILES": "Cc1cc(Cl)ccc1OCCCC(=O)NO",
    "SYSTEM TESTED": "CU-ACC1",
    "READOUT UNITS": "µM",
    "RESULT NUMBER": 20.9
  },
  {
    "TEST SMILES": "COc1cc2c(cc1OC(C)C)[C@H](c1ccc(Cl)cc1)N(c1ccc(N(C)C[C@H]3CC[C@H](N4CCN(C)C(=O)C4)CC3)cc1)C(=O)C2",
    "SYSTEM TESTED": "CU-ACC1",
    "READOUT UNITS": "µM",
    "RESULT NUMBER": 16.6
  }
]
